Entries and their Rate enhancement, Cdk2 S181C
Biological target: Cdk2(S181C) (C177A) (Homo sapiens, UniProt P24941, C177A/S181C)
Construct: poly-histidine; made in house; host or cells: E. coli
Experiment: Kinetic thiol consumption assay with Cdk2 mutant S181C
Format: binding
Design: key: rate constant with Cdk2 ÷ rate constant with model thiol (fold)
Details: Cdk2 S181C, additional mutation C177A

O=S1(=O)C=CC(Br)C1 (stereo not drawn) [EN010] ... 0.3144

**Query** Item C=CC(=O)Nc1ccc(C(=O)c2ccccc2)cc1 [CA-219] has what recorded Rate enhancement, Cdk2 S181C?
**Result** 0.5975

**Query** And then C=CC(=O)NCc1ccc(-c2csnn2)cc1 [BN-66] , what is it?
**Result** 0.8476

**Query** Item: C=CC(=O)N(Cc1ccc2c(c1)CCO2)C1CCCC1 [CA-184]
**Result** 10.57
